Assay: Single-dose pharmacokinetic study of pitavastatin calcium tablets
Format: in vivo, human (healthy Chinese volunteers)
Details: both, human, plasma, po, 2 mg

| structure-string | unit-of-measurement | Cmax |
| --- | --- | --- |
| O=C(O)C[C@H](O)C[C@H](O)/C=C/c1c(C2CC2)nc2ccccc2c1-c1ccc(F)cc1 | ng/mL | 106 |

====

Assay: Single-dose pharmacokinetic study of pitavastatin calcium tablets
Assay type: in vivo, human (healthy Chinese volunteers)
Details: female, human, plasma, oral, 4 mg

| structure-string | Cmax [µg/mL] |
| --- | --- |
| O=C(O)C[C@H](O)C[C@H](O)/C=C/c1c(C2CC2)nc2ccccc2c1-c1ccc(F)cc1 | 0.253 |

====

Test: Single-dose pharmacokinetic study of pitavastatin calcium tablets
Format: in vivo, human (healthy Chinese volunteers)
Conditions: female, human, plasma, oral, 4 mg

| compound | Vd [L] |
| --- | --- |
| O=C(O)C[C@H](O)C[C@H](O)/C=C/c1c(C2CC2)nc2ccccc2c1-c1ccc(F)cc1 [pitavastatin] | 72.7 |

====

Assay: Single-dose pharmacokinetic study of pitavastatin calcium tablets
Assay type: in vivo, human (healthy Chinese volunteers)
Conditions: male, human, plasma, oral, 1 mg

| structure-string | half-life (h) |
| --- | --- |
| O=C(O)C[C@H](O)C[C@H](O)/C=C/c1c(C2CC2)nc2ccccc2c1-c1ccc(F)cc1 | 12.3 |

====

Assay: Single-dose pharmacokinetic study of pitavastatin calcium tablets
Assay type: in vivo, human (healthy Chinese volunteers)
Conditions: female, human, plasma, oral, 2 mg
quantity-kind: clearance (mL/min)

| structure-string | measurement |
| --- | --- |
| O=C(O)C[C@H](O)C[C@H](O)/C=C/c1c(C2CC2)nc2ccccc2c1-c1ccc(F)cc1 | 102 |

====

Experiment: Single-dose pharmacokinetic study of pitavastatin calcium tablets
Assay type: in vivo, human (healthy Chinese volunteers)
Conditions: female, human, plasma, oral, 1 mg

| structure-string | AUC(0-t) |
| --- | --- |
| O=C(O)C[C@H](O)C[C@H](O)/C=C/c1c(C2CC2)nc2ccccc2c1-c1ccc(F)cc1 | 204 ng·h/mL |

====

Experiment: Single-dose pharmacokinetic study of pitavastatin calcium tablets
Format: in vivo, human (healthy Chinese volunteers)
Conditions: male, human, plasma, oral, 2 mg
quantity-kind: Cmax (ng/mL)

| compound | measurement |
| --- | --- |
| O=C(O)C[C@H](O)C[C@H](O)/C=C/c1c(C2CC2)nc2ccccc2c1-c1ccc(F)cc1 [pitavastatin] | 98.4 |

====

Test: Single-dose pharmacokinetic study of pitavastatin calcium tablets
Type: in vivo, human (healthy Chinese volunteers)
Conditions: both, human, plasma, oral, 4 mg
quantity-kind: half-life

| structure-string | quantity-kind | measurement |
| --- | --- | --- |
| O=C(O)C[C@H](O)C[C@H](O)/C=C/c1c(C2CC2)nc2ccccc2c1-c1ccc(F)cc1 | half-life | 10.4 h |

====

Assay: Single-dose pharmacokinetic study of pitavastatin calcium tablets
Assay type: in vivo, human (healthy Chinese volunteers)
Settings: male, human, plasma, oral, 2 mg

| compound | clearance [mL/min] |
| --- | --- |
| O=C(O)C[C@H](O)C[C@H](O)/C=C/c1c(C2CC2)nc2ccccc2c1-c1ccc(F)cc1 [pitavastatin] | 114 |

====

Test: Single-dose pharmacokinetic study of pitavastatin calcium tablets
Type: in vivo, human (healthy Chinese volunteers)
Details: both, human, plasma, oral, 1 mg

| structure-string | Tmax |
| --- | --- |
| O=C(O)C[C@H](O)C[C@H](O)/C=C/c1c(C2CC2)nc2ccccc2c1-c1ccc(F)cc1 | 37.8 min |

====

Assay: Single-dose pharmacokinetic study of pitavastatin calcium tablets
Format: in vivo, human (healthy Chinese volunteers)
Settings: both, human, plasma, oral, 2 mg
quantity-kind: Tmax (min)

| structure-string | unit-of-measurement | measurement |
| --- | --- | --- |
| O=C(O)C[C@H](O)C[C@H](O)/C=C/c1c(C2CC2)nc2ccccc2c1-c1ccc(F)cc1 | min | 39 |

====

Test: Single-dose pharmacokinetic study of pitavastatin calcium tablets
Assay type: in vivo, human (healthy Chinese volunteers)
Conditions: both, human, plasma, oral, 4 mg

| compound | unit-of-measurement | AUC(0-t) |
| --- | --- | --- |
| O=C(O)C[C@H](O)C[C@H](O)/C=C/c1c(C2CC2)nc2ccccc2c1-c1ccc(F)cc1 [pitavastatin] | ng·h/mL | 785 |

====

Test: Single-dose pharmacokinetic study of pitavastatin calcium tablets
Assay type: in vivo, human (healthy Chinese volunteers)
Settings: both, human, plasma, oral, 4 mg

| structure-string | Tmax / min |
| --- | --- |
| O=C(O)C[C@H](O)C[C@H](O)/C=C/c1c(C2CC2)nc2ccccc2c1-c1ccc(F)cc1 | 47.4 |

====

Test: Single-dose pharmacokinetic study of pitavastatin calcium tablets
Type: in vivo, human (healthy Chinese volunteers)
Details: male, human, plasma, oral, 1 mg
quantity-kind: Vd

| structure-string | quantity-kind | measurement |
| --- | --- | --- |
| O=C(O)C[C@H](O)C[C@H](O)/C=C/c1c(C2CC2)nc2ccccc2c1-c1ccc(F)cc1 | Vd | 86.4 L |

====

Test: Single-dose pharmacokinetic study of pitavastatin calcium tablets
Type: in vivo, human (healthy Chinese volunteers)
Conditions: both, human, plasma, po, 1 mg

| structure-string | Cmax / ng/mL |
| --- | --- |
| O=C(O)C[C@H](O)C[C@H](O)/C=C/c1c(C2CC2)nc2ccccc2c1-c1ccc(F)cc1 | 66.8 |

====

Test: Single-dose pharmacokinetic study of pitavastatin calcium tablets
Type: in vivo, human (healthy Chinese volunteers)
Settings: both, human, plasma, oral

| structure-string | half-life |
| --- | --- |
| O=C(O)C[C@H](O)C[C@H](O)/C=C/c1c(C2CC2)nc2ccccc2c1-c1ccc(F)cc1 | ~10 h |

====

Assay: Single-dose pharmacokinetic study of pitavastatin calcium tablets
Type: in vivo, human (healthy Chinese volunteers)
Conditions: male, human, plasma, oral, 4 mg

| structure-string | Tmax (min) |
| --- | --- |
| O=C(O)C[C@H](O)C[C@H](O)/C=C/c1c(C2CC2)nc2ccccc2c1-c1ccc(F)cc1 | 39 |

====

Experiment: Single-dose pharmacokinetic study of pitavastatin calcium tablets
Format: in vivo, human (healthy Chinese volunteers)
Conditions: both, human, plasma, oral, 2 mg

| structure-string | clearance [mL/min] |
| --- | --- |
| O=C(O)C[C@H](O)C[C@H](O)/C=C/c1c(C2CC2)nc2ccccc2c1-c1ccc(F)cc1 | 108 |

====

Experiment: Single-dose pharmacokinetic study of pitavastatin calcium tablets
Type: in vivo, human (healthy Chinese volunteers)
Settings: male, human, plasma, oral, 2 mg

| structure-string | AUC(0-t) / µg·h/mL |
| --- | --- |
| O=C(O)C[C@H](O)C[C@H](O)/C=C/c1c(C2CC2)nc2ccccc2c1-c1ccc(F)cc1 | 0.286 |

====

Assay: Single-dose pharmacokinetic study of pitavastatin calcium tablets
Format: in vivo, human (healthy Chinese volunteers)
Conditions: female, human, plasma, oral, 1 mg

| structure-string | unit-of-measurement | Vd |
| --- | --- | --- |
| O=C(O)C[C@H](O)C[C@H](O)/C=C/c1c(C2CC2)nc2ccccc2c1-c1ccc(F)cc1 | L | 73.3 |

====

Test: Single-dose pharmacokinetic study of pitavastatin calcium tablets
Format: in vivo, human (healthy Chinese volunteers)
Conditions: male, human, plasma, oral, 2 mg

| structure-string | unit-of-measurement | Tmax |
| --- | --- | --- |
| O=C(O)C[C@H](O)C[C@H](O)/C=C/c1c(C2CC2)nc2ccccc2c1-c1ccc(F)cc1 | min | 37.8 |

====

Experiment: Single-dose pharmacokinetic study of pitavastatin calcium tablets
Assay type: in vivo, human (healthy Chinese volunteers)
Settings: both, human, plasma, oral, 2 mg

| structure-string | Vd |
| --- | --- |
| O=C(O)C[C@H](O)C[C@H](O)/C=C/c1c(C2CC2)nc2ccccc2c1-c1ccc(F)cc1 | 86.9 L |

====

Assay: Single-dose pharmacokinetic study of pitavastatin calcium tablets
Type: in vivo, human (healthy Chinese volunteers)
Settings: male, human, plasma, oral, 2 mg

| structure-string | half-life |
| --- | --- |
| O=C(O)C[C@H](O)C[C@H](O)/C=C/c1c(C2CC2)nc2ccccc2c1-c1ccc(F)cc1 | 9.08 h |

====

Assay: Single-dose pharmacokinetic study of pitavastatin calcium tablets
Format: in vivo, human (healthy Chinese volunteers)
Conditions: female, human, plasma, oral, 1 mg

| structure-string | Cmax (ng/mL) |
| --- | --- |
| O=C(O)C[C@H](O)C[C@H](O)/C=C/c1c(C2CC2)nc2ccccc2c1-c1ccc(F)cc1 | 71 |

====

Experiment: Single-dose pharmacokinetic study of pitavastatin calcium tablets
Format: in vivo, human (healthy Chinese volunteers)
Settings: both, human, plasma, oral, 2 mg

| structure-string | half-life [h] |
| --- | --- |
| O=C(O)C[C@H](O)C[C@H](O)/C=C/c1c(C2CC2)nc2ccccc2c1-c1ccc(F)cc1 | 9.52 |
